# target of assay: human GluN1/GluN2B NMDA receptors (Homo sapiens, UniProt Q05586+Q13224)
# Sequence (Q13224 27-1484, other chains not shown): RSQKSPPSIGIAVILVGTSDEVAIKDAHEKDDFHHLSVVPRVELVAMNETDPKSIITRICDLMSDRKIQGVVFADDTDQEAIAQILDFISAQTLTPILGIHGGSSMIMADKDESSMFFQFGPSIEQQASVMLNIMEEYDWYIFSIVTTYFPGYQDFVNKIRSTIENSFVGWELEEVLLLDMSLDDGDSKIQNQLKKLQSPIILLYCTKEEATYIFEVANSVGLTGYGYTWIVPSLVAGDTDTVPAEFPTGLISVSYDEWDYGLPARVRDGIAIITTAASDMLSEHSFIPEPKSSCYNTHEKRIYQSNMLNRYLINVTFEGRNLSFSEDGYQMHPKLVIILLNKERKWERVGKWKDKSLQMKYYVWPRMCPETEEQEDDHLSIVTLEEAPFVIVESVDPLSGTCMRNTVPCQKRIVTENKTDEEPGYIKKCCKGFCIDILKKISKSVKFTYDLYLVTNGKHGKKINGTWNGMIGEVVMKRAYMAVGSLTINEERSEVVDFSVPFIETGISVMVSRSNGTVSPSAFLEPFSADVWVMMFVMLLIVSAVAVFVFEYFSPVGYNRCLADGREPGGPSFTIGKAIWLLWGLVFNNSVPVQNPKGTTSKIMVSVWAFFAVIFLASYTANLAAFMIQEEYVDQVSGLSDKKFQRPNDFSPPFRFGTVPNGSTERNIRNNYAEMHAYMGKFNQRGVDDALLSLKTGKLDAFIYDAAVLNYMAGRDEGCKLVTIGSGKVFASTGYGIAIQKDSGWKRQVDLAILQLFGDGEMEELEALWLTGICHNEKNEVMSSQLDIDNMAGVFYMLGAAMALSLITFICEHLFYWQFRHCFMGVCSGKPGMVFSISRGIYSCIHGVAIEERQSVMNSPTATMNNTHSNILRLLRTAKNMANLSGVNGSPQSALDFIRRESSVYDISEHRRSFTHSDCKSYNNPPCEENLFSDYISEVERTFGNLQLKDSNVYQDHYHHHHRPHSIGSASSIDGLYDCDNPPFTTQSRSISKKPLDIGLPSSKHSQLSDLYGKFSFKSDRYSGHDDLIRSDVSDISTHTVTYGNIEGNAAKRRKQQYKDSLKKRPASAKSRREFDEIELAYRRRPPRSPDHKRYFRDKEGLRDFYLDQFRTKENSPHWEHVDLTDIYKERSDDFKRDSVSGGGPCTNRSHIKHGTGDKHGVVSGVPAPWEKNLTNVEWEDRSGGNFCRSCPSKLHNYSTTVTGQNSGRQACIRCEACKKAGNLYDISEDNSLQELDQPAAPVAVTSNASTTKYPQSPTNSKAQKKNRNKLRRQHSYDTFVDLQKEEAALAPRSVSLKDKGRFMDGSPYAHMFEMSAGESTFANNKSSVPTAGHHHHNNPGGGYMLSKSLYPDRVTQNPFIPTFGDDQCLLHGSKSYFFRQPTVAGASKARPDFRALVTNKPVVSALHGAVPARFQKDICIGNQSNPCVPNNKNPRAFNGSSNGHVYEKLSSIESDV
# test: Calcium flux (FLIPR) assay on cloned human NR1/GluN2B ion channels expressed in mammalian cells, standard assay
# experimental parameters: glutamate ~EC40 and 10 μM glycine, stable cell line with Tet-On induced expression
experimental endpoint: IC50 (nM)

Example entries begin here.
In [3]: df
Out[3]:
                                   compound  experimental_endpoint  value_units  readout_value
0  FC(F)(F)c1cccc(-c2cnc3cnn(CC4CCCO4)c3c2)c1 (racemic)                   IC50           nM             93
1  O=C(Cn1ncc2ncc(-c3ccc(F)c(Cl)c3)cc21)C1CC1                   IC50           nM              7
2  CCC(O)Cn1ncc2ncc(-c3ccc(Cl)c(OC(F)F)c3)cc21 (racemic)                   IC50           nM            415

I. CC[S+]([O-])Cn1ncc2ncc(-c3ccc(F)c(F)c3)cc21 (racemic)
II. O=C1NCC(Cn2ncc3ncc(-c4ccc(F)c(OC(F)F)c4)cc32)O1 (racemic)
III. CC(C)C(O)Cn1ncc2ncc(-c3ccccc3)cc21 (racemic)
IV. O=C(Cn1ncc2ncc(-c3ccc(F)c(OC(F)F)c3)cc21)C1CC1
V. CC(C)C(=O)Cn1ncc2ncc(-c3ccc(F)c(C(F)(F)F)c3)cc21
Ask | Output the entries ranked by IC50 from maximum down to minimum. API: response body holds the labels in the requested order.
Reply | III, I, II, V, IV

###

# test: Liver microsomal stability (extraction ratio)
# Type: in vitro ADME
# experimental parameters: test compound 1 μM; 0.5 mg/mL liver microsomes, NADPH, 37° C.; species not given (method: mouse, rat, and human)
experimental endpoint: Extraction Ratio @ 1 μM

>>> print(df.to_string())
                                   molecule  readout_value
0  CCN1CC(Cn2ncc3ncc(-c4ccc(F)c(C(F)F)c4)cc32)OC1=O (racemic)           0.58
1  Cc1c(F)ccc(-c2cnc3cnn(CC(=O)C4CC4)c3c2)c1C           0.52
2  CC[S+]([O-])Cn1ncc2ncc(-c3ccc(F)c(C(F)F)c3)cc21 (single isomer, unassigned)           0.46
3  O=C(Cn1ncc2ncc(-c3cccc(C(F)F)c3)cc21)C1CC1           0.43
4  CCC(=O)Cn1ncc2ncc(-c3cc(F)c(F)c(F)c3)cc21           0.63
5  CC(=O)Cn1ncc2ncc(-c3ccc(F)c(OC(F)F)c3)cc21           0.64
6  CC[S+]([O-])Cn1ncc2ncc(-c3cccc(C(F)(F)F)c3F)cc21 (racemic)           0.50
7  CCC(=O)Cn1ncc2ncc(-c3ccc(F)c(C(F)F)c3)cc21           0.66
8  CCC(=O)Cn1nc(C)c2ncc(-c3ccc(F)c(C(F)F)c3)cc21           0.72
9  CCC(=O)Cn1ncc2ncc(-c3cccc(C(F)(F)F)c3F)cc21           0.61

###

# target of assay: human GluN1/GluN2B NMDA receptors (Homo sapiens, UniProt Q05586+Q13224)
# test: Calcium flux (FLIPR) assay on cloned human NR1/GluN2B ion channels expressed in mammalian cells, standard assay
# experimental parameters: glutamate ~EC40 and 10 μM glycine, stable cell line with Tet-On induced expression
pIC50: −log10 of the molar value.
experimental endpoint: pIC50

Example entries begin here.
                                   molecule  experimental_endpoint  readout_value
0  O=C(Cn1ncc2ncc(-c3ccc(F)c(C(F)F)c3)cc21)c1ncccc1F                  pIC50           6.72
1    O=C(Cn1ncc2ncc(-c3cccc(F)c3)cc21)C1CC1                  pIC50           7.59

a. CC(=O)Cn1ncc2ncc(-c3ccc(Cl)c(OC(F)F)c3)cc21
b. O=C(Cn1ncc2ncc(-c3ccc(F)cc3)cc21)C1CC1
c. CC[S+]([O-])Cn1ncc2ncc(-c3cccc(C(F)(F)F)c3)cc21 (racemic)
Ask | Number of molecules to sort: 3. Sort criterion: pIC50, ascending. API: response body holds the labels in the requested order.
Reply | c, a, b

Sourced from patent US11161846B2
